Reference source: ChEMBL document CHEMBL1240362

- RUN DESCRIPTION: Ratio of drug level in epithelial lining fluid to plasma in healthy human at 400 mg, po administered as single dose after 24 hrs
READOUT TYPE: Kp at 24 h
No unit in the answer, only the number.

Short answer for CC[C@H]1OC(=O)[C@H](C)C(=O)[C@H](C)[C@@H](O[C@@H]2O[C@H](C)C[C@H](N(C)C)[C@H]2O)[C@@]2(C)C[C@@H](C)/C(=N\C(C)=O)[C@H](C)[C@@H](OC/C(=N\OCc3ccc(-n4cccn4)nc3)CO2)[C@]1(C)O : Kp at 24 h was 21.3

---

- RUN DESCRIPTION: Ratio of drug level in epithelial lining fluid to plasma in healthy human at […] administered as single dose after 8 hrs
- Type: ADME, organism-based
- Parameters: route oral
- SETTINGS: po
READOUT TYPE: Kp at 8 h

Short answer for CC[C@H]1OC(=O)[C@H](C)C(=O)[C@H](C)[C@@H](O[C@@H]2O[C@H](C)C[C@H](N(C)C)[C@H]2O)[C@@]2(C)C[C@@H](C)/C(=N\C(C)=O)[C@H](C)[C@@H](OC/C(=N\OCc3ccc(-n4cccn4)nc3)CO2)[C@]1(C)O : Kp at 8 h was 25.9

---

- RUN DESCRIPTION: Ratio of drug level in alveolar macrophages to plasma in healthy human at 400 mg, po administered as single dose after 8 hrs
READOUT TYPE: Kp at 8 h
No unit in the answer, only the number.

Short answer for CC[C@H]1OC(=O)[C@H](C)C(=O)[C@H](C)[C@@H](O[C@@H]2O[C@H](C)C[C@H](N(C)C)[C@H]2O)[C@@]2(C)C[C@@H](C)/C(=N\C(C)=O)[C@H](C)[C@@H](OC/C(=N\OCc3ccc(-n4cccn4)nc3)CO2)[C@]1(C)O : Kp at 8 h was 283

---

- RUN DESCRIPTION: Drug level in alveolar macrophages of healthy human at […], po administered as single dose after 2 hrs
- Assay type: ADME, organism-based, Macrophage
- Parameters: route oral
- SETTINGS: read-out: Drug uptake
READOUT TYPE: concentration at 2 h

Short answer for CC[C@H]1OC(=O)[C@H](C)C(=O)[C@H](C)[C@@H](O[C@@H]2O[C@H](C)C[C@H](N(C)C)[C@H]2O)[C@@]2(C)C[C@@H](C)/C(=N\C(C)=O)[C@H](C)[C@@H](OC/C(=N\OCc3ccc(-n4cccn4)nc3)CO2)[C@]1(C)O [MODITHROMYCIN] : concentration at 2 h was 61 µg/mL

---

- RUN DESCRIPTION: Ratio of drug level in epithelial lining fluid to plasma in healthy human at 400 mg, po administered as single dose after 10 hrs
READOUT TYPE: Kp at 10 h
No unit in the answer, only the number.

Short answer for CC[C@H]1OC(=O)[C@H](C)C(=O)[C@H](C)[C@@H](O[C@@H]2O[C@H](C)C[C@H](N(C)C)[C@H]2O)[C@@]2(C)C[C@@H](C)/C(=N\C(C)=O)[C@H](C)[C@@H](OC/C(=N\OCc3ccc(-n4cccn4)nc3)CO2)[C@]1(C)O : Kp at 10 h was 23.2

---

- RUN DESCRIPTION: Drug level in alveolar macrophages of healthy human at […], po administered as single dose after 24 hrs
- Format: ADME, organism-based, Macrophage
- Design: route oral
- SETTINGS: read-out: Drug uptake
READOUT TYPE: concentration at 24 h (µg/mL)
A number alone suffices; assume µg/mL.

Short answer for CC[C@H]1OC(=O)[C@H](C)C(=O)[C@H](C)[C@@H](O[C@@H]2O[C@H](C)C[C@H](N(C)C)[C@H]2O)[C@@]2(C)C[C@@H](C)/C(=N\C(C)=O)[C@H](C)[C@@H](OC/C(=N\OCc3ccc(-n4cccn4)nc3)CO2)[C@]1(C)O : concentration at 24 h was 68

---

- RUN DESCRIPTION: Drug level in epithelial lining fluid of healthy human at […], po administered as single dose after 12 hrs
- Type: ADME, organism-based
- Design: route oral
- SETTINGS: read-out: Drug uptake
READOUT TYPE: concentration at 12 h (ng/mL)
A number alone suffices; assume ng/mL.

Short answer for CC[C@H]1OC(=O)[C@H](C)C(=O)[C@H](C)[C@@H](O[C@@H]2O[C@H](C)C[C@H](N(C)C)[C@H]2O)[C@@]2(C)C[C@@H](C)/C(=N\C(C)=O)[C@H](C)[C@@H](OC/C(=N\OCc3ccc(-n4cccn4)nc3)CO2)[C@]1(C)O [MODITHROMYCIN] : concentration at 12 h was 5800

---

- RUN DESCRIPTION: Plasma concentration in healthy human at […], po after 12 hrs
- Format: ADME, organism-based
- Set-up: route oral
READOUT TYPE: concentration at 12 h (ng/mL)
A number alone suffices; assume ng/mL.

Short answer for CC[C@H]1OC(=O)[C@H](C)C(=O)[C@H](C)[C@@H](O[C@@H]2O[C@H](C)C[C@H](N(C)C)[C@H]2O)[C@@]2(C)C[C@@H](C)/C(=N\C(C)=O)[C@H](C)[C@@H](OC/C(=N\OCc3ccc(-n4cccn4)nc3)CO2)[C@]1(C)O : concentration at 12 h was 424

---

- RUN DESCRIPTION: Drug level in epithelial lining fluid of healthy human at […] administered as single dose after 2 hrs
- Type: ADME, organism-based
- Design: route oral
- SETTINGS: po, read-out: Drug uptake
READOUT TYPE: concentration at 2 h (ng/mL)
A number alone suffices; assume ng/mL.

Short answer for CC[C@H]1OC(=O)[C@H](C)C(=O)[C@H](C)[C@@H](O[C@@H]2O[C@H](C)C[C@H](N(C)C)[C@H]2O)[C@@]2(C)C[C@@H](C)/C(=N\C(C)=O)[C@H](C)[C@@H](OC/C(=N\OCc3ccc(-n4cccn4)nc3)CO2)[C@]1(C)O : concentration at 2 h was 16700

---

- RUN DESCRIPTION: Tmax in plasma of healthy human at 400 mg, po administered as single dose
READOUT TYPE: Tmax (h)
A number alone suffices; assume h.

Short answer for CC[C@H]1OC(=O)[C@H](C)C(=O)[C@H](C)[C@@H](O[C@@H]2O[C@H](C)C[C@H](N(C)C)[C@H]2O)[C@@]2(C)C[C@@H](C)/C(=N\C(C)=O)[C@H](C)[C@@H](OC/C(=N\OCc3ccc(-n4cccn4)nc3)CO2)[C@]1(C)O : Tmax was 2.27

---

- RUN DESCRIPTION: Ratio of drug level in alveolar macrophages to plasma in healthy human at 400 mg, po administered as single dose after 24 hrs
READOUT TYPE: Kp at 24 h

Short answer for CC[C@H]1OC(=O)[C@H](C)C(=O)[C@H](C)[C@@H](O[C@@H]2O[C@H](C)C[C@H](N(C)C)[C@H]2O)[C@@]2(C)C[C@@H](C)/C(=N\C(C)=O)[C@H](C)[C@@H](OC/C(=N\OCc3ccc(-n4cccn4)nc3)CO2)[C@]1(C)O : Kp at 24 h was 232

---

- RUN DESCRIPTION: Ratio of drug level in epithelial lining fluid to plasma in healthy human at […], po administered as single dose after 6 hrs
- Assay type: ADME, organism-based
- Design: route oral
READOUT TYPE: Kp at 6 h
No unit in the answer, only the number.

Short answer for CC[C@H]1OC(=O)[C@H](C)C(=O)[C@H](C)[C@@H](O[C@@H]2O[C@H](C)C[C@H](N(C)C)[C@H]2O)[C@@]2(C)C[C@@H](C)/C(=N\C(C)=O)[C@H](C)[C@@H](OC/C(=N\OCc3ccc(-n4cccn4)nc3)CO2)[C@]1(C)O : Kp at 6 h was 27

---

- RUN DESCRIPTION: Tmax in epithelial lining fluid of healthy human at 400 mg, po administered as single dose
READOUT TYPE: Tmax (h)
A number alone suffices; assume h.

Short answer for CC[C@H]1OC(=O)[C@H](C)C(=O)[C@H](C)[C@@H](O[C@@H]2O[C@H](C)C[C@H](N(C)C)[C@H]2O)[C@@]2(C)C[C@@H](C)/C(=N\C(C)=O)[C@H](C)[C@@H](OC/C(=N\OCc3ccc(-n4cccn4)nc3)CO2)[C@]1(C)O : Tmax was 2

---

- RUN DESCRIPTION: Ratio of alveolar macrophages AUC (0 to 24 hrs) to plasma AUC (0 to 24 hrs) in healthy human at 400 mg, po administered as single dose
READOUT TYPE: Kp
No unit in the answer, only the number.

Short answer for CC[C@H]1OC(=O)[C@H](C)C(=O)[C@H](C)[C@@H](O[C@@H]2O[C@H](C)C[C@H](N(C)C)[C@H]2O)[C@@]2(C)C[C@@H](C)/C(=N\C(C)=O)[C@H](C)[C@@H](OC/C(=N\OCc3ccc(-n4cccn4)nc3)CO2)[C@]1(C)O : Kp was 245
